Assay: antimalarial activity against Dd2 strain (AID 2302)
Conditions: P. falciparum Dd2 in RBCs, LDH growth readout, 72 h; at 2 µM
Activity calls are given as the source filed them.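 How the source made its calls: active means growth inhibition above 50% at the single 2 µM test dose, taken to imply half-maximal potency below 2 µM; inactive means the rest.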
API: response.call in y (active), n (inactive)

1) O=C(c1cccc(-c2cccc(-c3nc4ccc(C(F)(F)F)cc4[nH]3)c2)c1)N1CCCCC1CN1CCC(O)C1 (centres undefined)
y
2) CNc1cc(-c2ccc3ccnc(N)c3c2)nc(N)n1
y
3) Cc1cc(NC(=O)c2sc3ccccc3c2O)no1
n
4) Clc1ccc(-c2ccc(CNCCCN3CCCC3)cc2)cc1
n
5) O=C(Nc1cccc(-c2nn3ccccc3c2-c2ccnc(Nc3cccc(N4CCCC4=O)c3)n2)c1)c1cc(F)ccc1F
y
6) COc1ccc(-c2ccc(NC(=O)c3cccc(F)c3)cc2)cc1CN1CCCN(C)CC1
n
7) CC(C)CNC(=O)c1ccnc(-c2ccc(CNC3Cc4ccccc4C3)cc2)c1
n
8) Cc1cccc(NC(=O)NC2CCN(CCCCCNC(=O)/C=C/c3ccc(Cl)c(Cl)c3)CC2)c1
n
9) Nc1cc(-c2ccc3c(N)nccc3c2)ccc1Cl
n
10) C=CCOc1cccc2c1CCN(CCN1CCC(NC(=O)c3ccc(-c4ccc(Cl)cc4)cc3)CC1)C2
n

Enquiry: Returns: the outcome recorded for O=C(/C=C/c1ccc(Cl)cc1)NCCCCCN1CCCC(C(=O)Nc2cccc(Cl)c2)C1 (centres undefined) in this assay.
Return: n

Enquiry: Now consider O=C(c1ccccc1)N1COCC(CCN2CCC(N3CCCC3)CC2)(c2ccc(Cl)c(Cl)c2)C1 (centres undefined) .
Return: n

Enquiry: Moving on to the next molecule: CN(C)CCOc1ccc(-c2cc(-c3ccc(Cl)c(O)c3)c(-c3ccncc3)[nH]2)cc1
Return: y

Enquiry: Please give the result for COc1ccc(CNC(=O)Nc2cc3cc(-c4ccc(CN(C)C)cc4)ccc3n3c(C)nnc23)cc1 too.
Return: y

Enquiry: Next molecule up: N#Cc1ccc(N2CCN(Cc3cccc(-c4cccc(-c5nc6ccc(F)cc6[nH]5)c4)c3)CC2)nc1
Return: y

Enquiry: Can you check Cc1[nH]c(C)c(-c2ccc(-c3ccc(OCC(F)(F)F)cc3)nc2)c(=O)c1Cl next?
Return: y

Enquiry: // same read-out, input: CN1CCC(NCc2cccc(-c3ccc(S(=O)(=O)NCCc4ccccn4)cc3)c2)CC1
Return: n

Enquiry: And the next one, Cc1cc(N2CCN(C)CC2)nc2ccc(NC(=O)Cc3cccc(C(F)(F)F)c3)cc12 ?
Return: y

Enquiry: Next up: CC(C)c1cc2c(ccc3nc(N)nc(N)c32)[nH]1
Return: n

Enquiry: Also need Cc1cc(N2CCC(NS(=O)(=O)c3ccc(F)cc3)CC2)nc(Nc2cccc(C#N)c2)n1 , thanks.
Return: y

Enquiry: What do you get for FC(F)(F)c1ccc2nc(-c3ccc(-c4cccc(CNCc5ccccc5)c4)cc3)[nH]c2c1 ?
Return: n

Enquiry: Param item: CCOc1ccc(-n2nc3c(Cl)nnc(-c4ccccc4)c3c2-c2ccccc2)cc1
Return: y

Enquiry: Further, for COCCCNc1nc2cc(OC)c(OC)cc2c2nc(-c3ccccc3)nn12 ?
Return: y

Enquiry: # repeat for CN1CC[C@@H](Oc2cc(NC(=O)Nc3ccc(Cl)c(C(F)(F)F)c3)ccc2Cl)C1
Return: y

Enquiry: Another molecule to look at: CC(C)c1ccc(NC(=O)NC2CCN(CCCCCNC(=O)/C=C/c3ccc(Cl)c(Cl)c3)CC2)cc1
Return: n

Enquiry: Now consider O=C(NCc1ccc(C(=O)NCc2cccc3ccccc23)cc1)c1ccc(O)c(-c2ccc(Cl)c(Cl)c2)c1 and answer again.
Return: n

Enquiry: Can you handle CCOc1cc(C)ccc1C1CCN(CCCCNC(=O)c2ccc(NC(=O)c3cc(Cl)cc(Cl)c3)cc2)CC1 next?
Return: y

Enquiry: Further, for Cc1cccn2c(=O)c3cc(C(=O)NC(C)c4ccccc4)c(=N)n(CCc4ccccc4)c3nc12 (centres undefined) ?
Return: y

Enquiry: // repeat for Cc1cccc(CC2CC(=O)N(c3ccc([N+](=O)[O-])cc3)C2=O)c1 (centres undefined) and report
Return: n

Enquiry: For CC1(C)N=C(N)N=C(N)N1OCc1cccs1 then?
Return: n

Enquiry: And for Cc1cc(-c2ccc(CN3Cc4ccccc4C3)cc2)ccc1S(=O)(=O)NCCN1CCCC1 ?
Return: n

Enquiry: Subsequent entry: CC12CCC(=O)N1C(C(=O)Nc1cccc(C(=O)Nc3cccc(C(F)(F)F)c3)c1)CS2 (centres undefined)
Return: y

Enquiry: Try the molecule COc1cccc(-c2cc(C(=O)Nc3ccc4nc(-c5ccccc5)[nH]c4c3)[nH]n2)c1
Return: y
